Biological target: FGF-R1 intracellular kinase domain (Homo sapiens, UniProt P11362, C488A/C584S/L457V)
Construct: starting from the endogenous methionine residue 456 to glutamate 766; made in house; host or cells: baculovirus vector expression system
Sequence (P11362 456-766 L457V/C488A/C584S): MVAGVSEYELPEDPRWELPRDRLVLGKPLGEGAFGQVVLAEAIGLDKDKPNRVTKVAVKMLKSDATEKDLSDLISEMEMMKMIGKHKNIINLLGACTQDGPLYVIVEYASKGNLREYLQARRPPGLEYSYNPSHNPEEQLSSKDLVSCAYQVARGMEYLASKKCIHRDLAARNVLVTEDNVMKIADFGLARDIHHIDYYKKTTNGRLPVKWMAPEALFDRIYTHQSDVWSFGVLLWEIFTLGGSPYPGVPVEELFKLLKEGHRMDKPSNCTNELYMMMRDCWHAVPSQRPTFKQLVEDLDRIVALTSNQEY
Assay: FGF-R spectrophotometric assay
Type: biochemical
Conditions: 50 nM test compound; read-out: FGF-P (% inh @ 50 nM)
ASSAY READOUT: inhibition at 0.05 µM

Query: Which inhibition at 0.05 µM reading was recorded for the compound O=C(Cc1ccc(Oc2ccnc3cc(C(=O)N4CC[C@@H](O)C4)sc23)cc1)Nc1ccc(Cl)cn1 [Example 16] ?
Reply: 0 to 5%

----------
Target: unphosphorylated VEGF-R2D50 (FLVK), cytosolic domain of human VEGF-R2 (Homo sapiens, UniProt P35968, DEL940-989/E990V)
Construct: VEGF-R2D50 contains residues 806–939 and 990–1171; made in house; host or cells: baculovirus/insect cell system
Sequence (P35968 with tags, fused parts or gaps DEL940-989/E990V limits assumed): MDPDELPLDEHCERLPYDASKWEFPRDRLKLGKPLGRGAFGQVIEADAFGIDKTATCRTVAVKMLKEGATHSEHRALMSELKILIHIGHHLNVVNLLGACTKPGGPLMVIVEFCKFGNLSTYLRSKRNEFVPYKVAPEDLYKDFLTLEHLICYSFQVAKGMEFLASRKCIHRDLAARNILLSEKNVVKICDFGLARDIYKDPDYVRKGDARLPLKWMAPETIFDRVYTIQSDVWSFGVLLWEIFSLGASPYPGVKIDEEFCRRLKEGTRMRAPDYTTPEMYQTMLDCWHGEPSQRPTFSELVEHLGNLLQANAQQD
Assay: VEGF-R2 coupled spectrophotometric assay (FLVK)
Type: biochemical
Form field: Ki (one value per entry).

Query: Which Ki reading was recorded for the molecule `Cc1cc(C)nc(NC(=O)Cc2ccc(Oc3ccnc4cc(-c5nccn5C)sc34)c(F)c2)c1` ?
Reply: < 1 nM

Query: Which Ki reading was recorded for the molecule `Cc1ccc(NC(=O)Cc2ccc(Oc3ccnc4cc(C(=O)N5CCC5)sc34)cc2)nc1` ?
Reply: < 1 nM

Query: Which Ki reading was recorded for the molecule `O=C(Cc1ccc(Oc2ccnc3cc(C(=O)N4CCC4)sc23)cc1)Nc1cc2ccccc2cn1` ?
Reply: < 1 nM

Query: Which Ki reading was recorded for the molecule `O=C(Cc1ccc(Oc2ccnc3cc(C(=O)N4CCC4)sc23)cc1)Nc1ccc(F)cn1` ?
Reply: 1 to 10 nM

Query: Which Ki reading was recorded for the molecule `CN(C)C(=O)c1cc2nccc(Oc3ccc(CC(=O)Nc4ccc(Cl)cn4)cc3)c2s1` ?
Reply: 1 to 10 nM
